Values were extracted from the supplement of paper PMC6607015.

- Tested on: A431
- Test details: filipin (cholesterol) integrated intensity within LBPA endosomes, Z-score; higher = more cholesterol in LBPA endosomes
- Condition details: compound concentration in added solution (µM; 5 µl added to 20 µl cells): 10; 18 h
Structures can show the parent of a compound that is named as a salt.

Molecule | filipin (z-score)
C=C1c2c(Cl)ccc(O)c2C(=O)C2=C(O)[C@]3(O)C(=O)C(C(N)=O)=C(O)[C@@H](N(C)C)[C@@H]3[C@@H](O)[C@H]12.O=C(O)c1cc(S(=O)(=O)O)ccc1O [Meclocycline sulfosalicylate] | -0.554
CC(=O)OC(C)C[N+](C)(C)C (stereo not given) [Methacholine chloride] | -0.383
CN1CCCC(n2nc(Cc3ccc(Cl)cc3)c3ccccc3c2=O)CC1 (stereo not given) [Azelastine HCl] | 2.29
CSc1ccc2c(c1)N(CCC1CCCCN1C)c1ccccc1S2 (stereo not given) [Thioridazine hydrochloride] | 1.25
O=C(O)COCCN1CCN(C(c2ccccc2)c2ccc(Cl)cc2)CC1 (stereo not given) [Cetirizine dihydrochloride] | -0.508
